inhibition values, listed per item
# test-summary: growth inhibition of non-replicating M. tuberculosis (AID 488890);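 note: plate controls were DMSO cells for no effect and high antibiotic wells for full effect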
# measurement-conditions: Mycobacterium tuberculosis non-replicating, at 25 µM, stronger effect = higher value
About 1,300 (0.41%) of roughly 320,000 compounds were called active. About 3% were inconclusive and are not listed. A selection follows. Measured potencies and affinities stand elsewhere.
readout-kind: inhibition (%)

molecule | readout-unit | measured
CC[C@H](C)[C@H](NC(=O)[C@H](Cc1ccc(O)cc1)NC(=O)[C@@H](N)C(C)C)C(=O)N[C@@H](Cc1cnc[nH]1)C(=O)N1CCC[C@H]1C(=O)N[C@@H](Cc1ccccc1)C(=O)O | % | -4.04
Cc1ccc(C2=NN(CCC(=O)NCc3ccc4c(c3)OCO4)C(=O)CC2)cc1 | % | 4.59
O=C(NCCCCl)C1CC(=O)N(CCc2ccc(F)cc2)C1 (centres undefined) | % | 5.65
COc1ccc(C(=O)COC(=O)c2ccc(-n3cnnn3)cc2)c(OC)c1 | % | -4.6

###

# test-summary: growth inhibition of non-replicating M. tuberculosis (AID 488890);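 note: plate controls were DMSO cells for no effect and high antibiotic wells for full effect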
# measurement-conditions: Mycobacterium tuberculosis non-replicating, at 25 µM, stronger effect = higher value
About 1,300 (0.41%) of roughly 320,000 compounds were called active. Not shown: some 3% with an inconclusive outcome. Not all results are given here. Measured potencies and affinities stand elsewhere.

smiles-str | inhibition
O=C(Oc1c(Cl)cc(Cl)c2cccnc12)N1CCOCC1 | 2.11%
Cc1cc(N2CCN(c3ccccc3)CC2)nc(N)n1 | -1.71%
CCOC(=O)N1CCN(Cc2ccccc2Cl)CC1 | 10.7%
O=C(NC1CCCC1)c1cc(-c2ccccc2O)on1 | 4.68%
COc1cc(OC)cc(-c2nnc(NC(=O)CCS(=O)(=O)c3ccccc3)o2)c1 | 78.9%
CCOC(=O)N1CCN(Cc2ccc(O)c3ncccc23)CC1 | 56.8%
Cc1cc(C)n(-c2nc3ccccc3nc2N2CCC(C)CC2)n1 | 34%
Cc1ccccc1C(=O)Nc1nnc(-c2ccco2)s1 | -20.8%
O=C(NC1CCCCC1)c1cc(-c2cccs2)on1 | 43.1%
Cc1cc(Cl)nc(-n2nc(C)cc2C)n1 | 27.1%
O=[N+]([O-])c1cc(CN2CCCC2)c2cccnc2c1O | -4.52%
CC(=O)Nc1nnc(-c2ccco2)o1 | 4.52%

###

# test-summary: growth inhibition of non-replicating M. tuberculosis (AID 488890);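 note: plate controls were DMSO cells for no effect and high antibiotic wells for full effect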
# measurement-conditions: Mycobacterium tuberculosis non-replicating, at 25 µM, stronger effect = higher value
In all, about 320,000 compounds went through this assay and about 1,300 (0.41%) were called active. About 3% were inconclusive and are not listed. The list is a sample of the results. Measured potencies and affinities stand elsewhere.

smiles-str | readout-unit | inhibition
CCCCCn1c(=O)c(C(=O)Nc2ccccc2)c(O)c2ccccc21 | % | 16.7
Cc1cc(C(=O)N2CCC(Cc3ccccc3)CC2)c(C)o1 | % | 15.3
O=C(c1cccs1)N1CCC(Cc2ccccc2)CC1 | % | 11.9
O=C(O)CCCNS(=O)(=O)c1ccc(NCc2ccccc2)c(C(=O)O)c1 | % | -9.34
Cc1cc(C(=O)Nc2cc(C)on2)on1 | % | 6.65
CC1(C)CC(=O)c2c(Cc3ccccc3)noc2C1 | % | 3.41
CCOCC(=O)N1CCC(Cc2ccccc2)CC1 | % | 47.1
CC(C)NC(=O)c1c(O)c2cccc3c2n(c1=O)CCC3 | % | 11.9
CCCCCn1c(=O)c(C(=O)Nc2ccccc2Cl)c(O)c2ccccc21 | % | -6.13
CCCCCn1c(=O)c(-c2nc3ccccc3[nH]2)c(O)c2ccccc21 | % | 1.53
CCCCCCn1c(=O)c(C(=O)Nc2cccc(C)n2)c(O)c2ccccc21 | % | -13.9
CNC(=O)c1c(O)c2cccc3c2n(c1=O)CCC3 | % | 45.4
